measured-on: Albumin (Bos taurus) (UniProt P02769)
Sequence (P02769 whole entry, looked up): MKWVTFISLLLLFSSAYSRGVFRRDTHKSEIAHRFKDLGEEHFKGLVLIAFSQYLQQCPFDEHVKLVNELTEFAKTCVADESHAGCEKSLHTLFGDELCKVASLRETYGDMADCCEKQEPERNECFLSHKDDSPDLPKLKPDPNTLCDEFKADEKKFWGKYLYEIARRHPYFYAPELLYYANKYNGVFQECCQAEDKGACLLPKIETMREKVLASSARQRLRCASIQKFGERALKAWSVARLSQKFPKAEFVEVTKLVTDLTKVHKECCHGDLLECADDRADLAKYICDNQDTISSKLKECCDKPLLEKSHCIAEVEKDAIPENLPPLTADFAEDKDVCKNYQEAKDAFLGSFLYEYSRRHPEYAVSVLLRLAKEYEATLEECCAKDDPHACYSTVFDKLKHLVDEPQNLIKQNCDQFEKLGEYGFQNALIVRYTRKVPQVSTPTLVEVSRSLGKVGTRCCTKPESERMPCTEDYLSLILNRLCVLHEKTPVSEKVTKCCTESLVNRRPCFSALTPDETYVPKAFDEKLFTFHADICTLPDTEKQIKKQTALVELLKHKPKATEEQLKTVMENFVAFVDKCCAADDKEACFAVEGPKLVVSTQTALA
procedure-text: bovine serum albumin binders on microarray, profiling panel, artefact control for SMM control protein annotation, biochemical, small-molecule microarray, Alexa647 label, 635/667 nm fluorescence (AID 1118);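 further: score merges 667 nm emission intensity and signal-to-noise per printed compound spot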
condition-description: BSA-A647 binding, fluorescence 635 nm, higher = more signal
property-measured: composite z-score

Worked cases, composite z-score given:
[
  {
    "compound": "Cc1ccc(S[C@]2(C(=O)NCC(F)(F)F)CC(=O)N(C3CCCCC3)[C@@H]2c2ccc(CO)cc2)cc1",
    "reported-result": 0.344
  },
  {
    "compound": "COc1cc2c(cc1O)C(c1ccc(CN3CCCC3)cc1)N(Cc1ccc([N+](=O)[O-])o1)CC2 (centres undefined)",
    "reported-result": 0.847
  },
  {
    "compound": "CC(C)CNC(=O)[C@@H]1c2ccccc2C(=O)N(C(C)C)[C@H]1c1ccc(CO)cc1",
    "reported-result": 0.121
  }
]

Moving on to the next compound.
Q. Please report the recorded composite z-score for `COCCn1c(C(=O)N2CCCC2)cc2c1C[C@H]1CN(C(=O)c3ccccc3)[C@@](Cc3ccccc3)(C(=O)OC)[C@@H]21` .
A. 1.03
